Assay: In vitro inhibitory concentration against Methionyl-tRNA synthetase in a pyrophosphate exchange assay
pIC50: −log10 of the molar value.
metric: pIC50

a. Oc1cc(NCCCNCc2ccc(Cl)c(Cl)c2)nc2ccccc12
b. Oc1cc(NCCCNC2CCNc3c(Br)cc(Br)cc32)nc2ccccc12 (configuration not stated)
Prompt: Which gives the smaller pIC50 number: a or b ? # reply format: chosen label
Response: a
(a: 6.30, b: 9.00)

###

Molecular target: Methionyl-tRNA synthetase (Staphylococcus aureus)
Test: In vitro inhibitory concentration against Staphylococcus aureus Methionyl-tRNA synthetase
metric: IC50 (nM)
Field: numeric (nM). Do not append units.

Prompt: Provide only the value of recorded IC50 for CCc1cc(I)c2c(c1)C(NCCCNc1cc(O)c3ccccc3n1)CCN2 (stereo unspecified)
Response: 12
